This collection of values is drawn from ChEMBL document CHEMBL2074239.

measurement_target: Organic anion transporter 3 (Homo sapiens)
Sequence (Q8TCC7 whole entry): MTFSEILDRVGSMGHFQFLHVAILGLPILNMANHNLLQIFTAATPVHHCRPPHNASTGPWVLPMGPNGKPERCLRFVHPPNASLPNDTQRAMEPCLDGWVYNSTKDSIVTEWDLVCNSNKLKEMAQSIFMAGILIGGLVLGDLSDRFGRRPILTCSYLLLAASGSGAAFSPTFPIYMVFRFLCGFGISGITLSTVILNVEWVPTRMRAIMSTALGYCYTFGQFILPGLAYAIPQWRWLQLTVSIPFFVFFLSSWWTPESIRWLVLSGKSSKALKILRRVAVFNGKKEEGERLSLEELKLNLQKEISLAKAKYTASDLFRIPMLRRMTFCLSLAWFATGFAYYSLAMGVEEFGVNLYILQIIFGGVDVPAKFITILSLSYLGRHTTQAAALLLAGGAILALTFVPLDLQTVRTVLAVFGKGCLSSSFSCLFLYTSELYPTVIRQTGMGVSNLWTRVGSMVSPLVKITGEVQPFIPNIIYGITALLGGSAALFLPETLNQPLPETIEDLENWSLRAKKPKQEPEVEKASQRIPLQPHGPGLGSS
procedure_text: TP_TRANSPORTER: inhibition of benzylpenicillin uptake in OAT3-expressing HEK293 cells
pKi: −log10 of the molar value.

| molecule | measurement_target | pKi |
| --- | --- | --- |
| CC(=O)Oc1c[nH]c2ccccc12 [INDOLE ACETATE] | Organic anion transporter 3 (Homo sapiens) | 3.31 |
| O=C(O)CNC(=O)c1ccccc1 | Organic anion transporter 3 (Homo sapiens) | 4.51 |
